- System: HepG2 cell line
- test: MTT cytotoxicity assay, HepG2 cell line
- Assay type: cell-based
- conditions: Homo sapiens; HepG2, MTT; read-out: IC50 HepG2
Listing of entries alongside the reported pIC50.
pIC50 field: float, defined as -log10 of concentration (mol/L).

[
  {
    "given.smiles": "C[C@H]1[C@H](OC(=O)CCC(=O)OCC(COC(=O)CCC(=O)O[C@@H]2O[C@@H]3O[C@@]4(C)CC[C@H]5[C@H](C)CC[C@@H]([C@H]2C)[C@@]35OO4)(COC(=O)CCC(=O)O[C@@H]2O[C@@H]3O[C@@]4(C)CC[C@H]5[C@H](C)CC[C@@H]([C@H]2C)[C@@]35OO4)NC(=O)C(F)(F)F)O[C@@H]2O[C@@]3(C)CC[C@H]4[C@H](C)CC[C@@H]1[C@@]24OO3",
    "pIC50": 5.11
  }
]

The recorded pIC50 with HepG2 cell line for C[C@H]1[C@H](OC(=O)CCC(=O)OCC(COC(=O)CCC(=O)O[C@@H]2O[C@@H]3O[C@@]4(C)CC[C@H]5[C@H](C)CC[C@@H]([C@H]2C)[C@@]35OO4)(COC(=O)CCC(=O)O[C@@H]2O[C@@H]3O[C@@]4(C)CC[C@H]5[C@H](C)CC[C@@H]([C@H]2C)[C@@]35OO4)NC=O)O[C@@H]2O[C@@]3(C)CC[C@H]4[C@H](C)CC[C@@H]1[C@@]24OO3 was 6.26

The recorded pIC50 with HepG2 cell line for C[C@H]1[C@H](OC(=O)CCC(=O)NC(COC(=O)CCC(=O)O[C@@H]2O[C@@H]3O[C@@]4(C)CC[C@H]5[C@H](C)CC[C@@H]([C@H]2C)[C@@]35OO4)COC(=O)CCC(=O)O[C@@H]2O[C@@H]3O[C@@]4(C)CC[C@H]5[C@H](C)CC[C@@H]([C@H]2C)[C@@]35OO4)O[C@@H]2O[C@@]3(C)CC[C@H]4[C@H](C)CC[C@@H]1[C@@]24OO3 was 5.75

The recorded pIC50 with HepG2 cell line for CC(=O)NC(COC(=O)CCC(=O)O[C@@H]1O[C@@H]2O[C@@]3(C)CC[C@H]4[C@H](C)CC[C@@H]([C@H]1C)[C@@]24OO3)(COC(=O)CCC(=O)O[C@@H]1O[C@@H]2O[C@@]3(C)CC[C@H]4[C@H](C)CC[C@@H]([C@H]1C)[C@@]24OO3)COC(=O)CCC(=O)O[C@@H]1O[C@@H]2O[C@@]3(C)CC[C@H]4[C@H](C)CC[C@@H]([C@H]1C)[C@@]24OO3 was 6.51
